Target: Bifunctional epoxide hydrolase 2 (Homo sapiens)
Sequence (P34913 whole entry): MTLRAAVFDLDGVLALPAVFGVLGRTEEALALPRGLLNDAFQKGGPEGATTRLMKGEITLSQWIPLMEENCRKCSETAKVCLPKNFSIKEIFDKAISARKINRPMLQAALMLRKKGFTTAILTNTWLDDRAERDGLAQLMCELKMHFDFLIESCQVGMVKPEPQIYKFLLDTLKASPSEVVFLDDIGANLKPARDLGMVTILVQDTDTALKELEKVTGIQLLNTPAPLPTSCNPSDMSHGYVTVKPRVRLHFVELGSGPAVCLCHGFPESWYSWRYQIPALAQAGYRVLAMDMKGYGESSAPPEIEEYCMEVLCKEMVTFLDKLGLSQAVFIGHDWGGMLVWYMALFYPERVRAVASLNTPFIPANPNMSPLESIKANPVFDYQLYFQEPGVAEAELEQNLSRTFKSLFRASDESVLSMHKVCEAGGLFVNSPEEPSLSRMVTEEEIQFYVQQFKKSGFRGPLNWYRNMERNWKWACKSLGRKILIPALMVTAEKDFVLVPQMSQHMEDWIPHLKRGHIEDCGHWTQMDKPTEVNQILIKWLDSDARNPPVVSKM
Assay: Inhibitory concentration against human soluble epoxide hydrolase (sEH) at 0.24 uM
measure name: IC50 (µM)

Consider the following illustrative entries.
| compound | quantitative readout |
| --- | --- |
| CCCCCCC(O)CCCNC(=O)NC12CC3CC(CC(C3)C1)C2 (stereo unspecified) | 0.13 |
| CCCCCCCCCCNC(=O)NC12CC3CC(CC(C3)C1)C2 | 0.11 |

[1] CCCCCOC(=O)CCCOC(=O)Nc1cccc(Cl)c1
[2] COc1ccc(NC(=O)CC2CCCCC2)cc1
[3] CCCCCOC(=O)CCCNC(=O)C12CC3CC(CC(C3)C1)C2
[Q] Hi! Can you put these in order of IC50, lowest number first? The labels, placed in the requested order, form the answer.
[A] 2, 3, 1
(2: 6.2 µM, 3: 9.4 µM, 1: 25.2 µM)

---

Assay: Solubility in sodium phosphate buffer 0.1M, pH 7.4 at 25 +/-1.5 degree C
Type: physicochemical
Settings: read-out: S
measure name: solubility (µg/mL)

[I] CCCCCOC(=O)CCCCC(=O)NC12CC3CC(CC(C3)C1)C2
[II] CCCCCCCCCCCC(=O)NC12CC3CC(CC(C3)C1)C2
[Q] Response body: label of entry with the larger solubility; valid values I , II . Give the chosen item's label as your response.
[A] I

---

Target: Bifunctional epoxide hydrolase 2 (Mus musculus)
Sequence (P34914 whole entry): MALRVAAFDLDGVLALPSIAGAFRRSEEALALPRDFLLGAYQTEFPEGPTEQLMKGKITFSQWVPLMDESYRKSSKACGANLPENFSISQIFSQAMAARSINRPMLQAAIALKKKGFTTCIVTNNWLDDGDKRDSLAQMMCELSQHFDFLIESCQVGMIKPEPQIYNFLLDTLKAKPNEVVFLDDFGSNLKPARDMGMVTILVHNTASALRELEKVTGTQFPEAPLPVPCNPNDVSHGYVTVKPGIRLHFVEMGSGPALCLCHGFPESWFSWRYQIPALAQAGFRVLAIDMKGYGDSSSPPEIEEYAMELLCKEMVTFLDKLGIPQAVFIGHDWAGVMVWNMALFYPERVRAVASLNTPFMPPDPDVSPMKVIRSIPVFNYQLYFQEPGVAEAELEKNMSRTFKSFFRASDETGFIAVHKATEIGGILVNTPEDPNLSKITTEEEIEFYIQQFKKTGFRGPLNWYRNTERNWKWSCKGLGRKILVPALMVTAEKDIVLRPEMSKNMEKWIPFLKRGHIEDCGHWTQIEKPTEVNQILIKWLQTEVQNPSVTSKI
Test: Inhibitory concentration against mouse soluble epoxide hydrolase (sEH) at 0.12 uM
pIC50: −log10 of the molar value.
measure name: pIC50

| molecule | experimental target | pIC50 |
| --- | --- | --- |
| O=C(CC1CCCCC1)Nc1ccccc1CO | Bifunctional epoxide hydrolase 2 (Mus musculus) | < 4.00 |
| O=C(Nc1ccccc1CO)NC1CCCCC1 | Bifunctional epoxide hydrolase 2 (Mus musculus) | < 4.00 |

Known value: Bifunctional epoxide hydrolase 2 (Mus musculus) pIC50 of the molecule "CCCCCOC(=O)CCCOC(=O)Nc1cccc(Cl)c1" equals 4.76

Known value: Bifunctional epoxide hydrolase 2 (Mus musculus) pIC50 of the molecule "CCCCCOC(=O)CCCNC(=O)Oc1cccc(Cl)c1" equals < 4.00

Known value: Bifunctional epoxide hydrolase 2 (Mus musculus) pIC50 of the molecule "O=C(Cc1ccccc1CO)NC1CCCCC1" equals < 4.00

Known value: Bifunctional epoxide hydrolase 2 (Mus musculus) pIC50 of the molecule "CCCCCOC(=O)CCCOC(=O)Oc1cccc(Cl)c1" equals < 4.00

Known value: Bifunctional epoxide hydrolase 2 (Mus musculus) pIC50 of the molecule "CCCCCOC(=O)CCCNC(=O)C12CC3CC(CC(C3)C1)C2" equals 5.55

Known value: Bifunctional epoxide hydrolase 2 (Mus musculus) pIC50 of the molecule "CCCCCOC(=O)CCCOC(=O)Cc1cccc(Cl)c1" equals < 4.00

Known value: Bifunctional epoxide hydrolase 2 (Mus musculus) pIC50 of the molecule CCCCCCC(O)CCCNC(=O)NC12CC3CC(CC(C3)C1)C2 (centres undefined) equals 7.30

---

Assay: Partition coefficient (logP)
Type: physicochemical
Settings: octanol/water; read-out: logP
measure name: logP

[P] CCCCCCCCCCCC(=O)NC12CC3CC(CC(C3)C1)C2
[Q] CCCCCOC(=O)CCCNC(=O)CC12CC3CC(CC(C3)C1)C2
[Q] Compare P and Q and name the one whose reported logP is smaller. Give the chosen item's label as your response.
[A] Q
(Q: 3.66, P: 5.52)

---

Assay: Solubility in sodium phosphate buffer 0.1M, pH 7.4 at 25 +/-1.5 degree C
Assay type: physicochemical
Conditions: read-out: S
measure name: solubility (µg/mL)

| smiles repr | measure name | quantitative readout |
| --- | --- | --- |
| CCCCCCCCCCNC(=O)CC12CC3CC(CC(C3)C1)C2 | solubility | 0.32 |

[A] CCCCCOC(=O)CCCNC(=O)NC12CC3CC(CC(C3)C1)C2
[B] CCCCCCCCCCNC(=O)NC12CC3CC(CC(C3)C1)C2
[Q] Compare A and B and name the one whose reported solubility is smaller. Give the chosen item's label as your response.
[A] B
(B: 0.5 µg/mL, A: 1.44 µg/mL)

---

Experiment: Partition coefficient (logP)
Format: physicochemical
Conditions: octanol/water; read-out: logP
measure name: logP

| smiles repr | logP |
| --- | --- |
| CCCCCCCCCCNC(=O)NC12CC3CC(CC(C3)C1)C2 | 4.76 |

[P] CCCCCCCCCCNC(=O)CC12CC3CC(CC(C3)C1)C2
[Q] CCCCCOC(=O)CCCCC(=O)NC12CC3CC(CC(C3)C1)C2
[Q] Compare P and Q and name the one whose reported logP is smaller. Give the chosen item's label as your response.
[A] Q
(Q: 3.53, P: 5.64)
